Known kon of a selection of binders
Biological target: T1, His-tagged human TIGIT (human, UniProt Q495A1 22-141)
T1 construct: SPR analyte; also called human TIGIT protein; not shown: His tag
T1 sequence: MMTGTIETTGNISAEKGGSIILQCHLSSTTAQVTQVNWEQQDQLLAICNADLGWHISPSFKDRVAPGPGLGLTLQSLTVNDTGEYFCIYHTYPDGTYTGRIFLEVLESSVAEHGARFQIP
Assay: SPR experiment 2, IgG from HEK293 supernatant captured

# binder, kon
records = [
    ("humanized TIGIT-19 antibody 19VH4 + 19VL1 (antibody, V domains shown, Full-length IgG, tested as HEK293 supernatant) VH: QVQLVQSGAEVKKPGASVKVSCKASGYAFSRYSMYWVRQAPGQGLEWIAFIDPYNGGSTYNQRFRGKATLTVDTSISTAYMELSRLRSDDTAVYYCARGGDYGWYLGVWGQGTLVTVSS VL: DIQMTQSPSSLSASVGDRVTITCRPSENIYTYLSWYQQKPGKAPKLLIYNAKTLPEGVPSRFSGSGSGTDFTLTISSLQPEDFATYYCQHHYGNPLTFGQGTKVEIK", "1.2e+06 M⁻¹ s⁻¹"),
    ("humanized TIGIT-19 antibody 19VH4 + 19VL1.M6 (antibody, V domains shown, Full-length IgG, tested as HEK293 supernatant) VH: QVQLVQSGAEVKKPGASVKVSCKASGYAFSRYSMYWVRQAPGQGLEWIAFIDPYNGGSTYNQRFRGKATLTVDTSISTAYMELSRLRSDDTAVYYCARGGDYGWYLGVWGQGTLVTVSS VL: DIQMTQSPSSLSASVGDRVTITCRASQNIYSYLSWYQQKPGKAPKLLIYNAKSLPSGVPSRFSGSGSGTDFTLTISSLQPEDFATYYCQHHYGNPLTFGQGTKVEIK", "1e+06 M⁻¹ s⁻¹"),
    ("humanized TIGIT-19 antibody 19VH4 + 19VL1.M5 (antibody, V domains shown, Full-length IgG, tested as HEK293 supernatant) VH: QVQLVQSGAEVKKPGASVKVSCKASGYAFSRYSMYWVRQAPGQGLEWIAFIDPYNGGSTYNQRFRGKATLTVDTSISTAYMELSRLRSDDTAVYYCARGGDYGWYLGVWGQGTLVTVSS VL: DIQMTQSPSSLSASVGDRVTITCRASQNIYTYLSWYQQKPGKAPKLLIYNAKSLPSGVPSRFSGSGSGTDFTLTISSLQPEDFATYYCQHHYGNPLTFGQGTKVEIK", "1.1e+06 M⁻¹ s⁻¹"),
]
